molecular target: P2X7 receptor (Homo sapiens); construct: host or cells: THP-1 cells differentiated with LPS and IFN-γ; assay: IL-1β release assay in differentiated THP-1 cells stimulated with BzATP (Example 9); assay type: cell-based; conditions: 0.3 μM compound; differentiated THP-1 cells, BzATP 250 uM; symbols + to ++++; read-out: IL-1β % Inhib. @ 0.3 μM
Listed below: inhibition at 0.3 µM values for each entry.

Previously resolved entries follow.
| record smiles | observed |
| --- | --- |
| COc1ccc(OC)c(CC(=O)Nc2cccc3c(=O)n(CCN4CCOCC4)ccc23)c1 | 0 to 25% |
| COCCn1ccc2c(NC(=O)Cc3cccc(C)c3)cccc2c1=O | 0 to 25% |
| CC(C)(C)Cn1ccc2c(NC(=O)Cc3ccc4c(c3)OCO4)cccc2c1=O | 26 to 50% |
| CC(C)(C)Cn1ccc2c(NC(=O)CCCc3ccccc3)cccc2c1=O | 0 to 25% |
| Cc1ccc(Cl)c(C(=O)Nc2cccc3c(=O)n(CC(C)(C)C)ccc23)c1 | 0 to 25% |

Lookup result for `Cc1cc(C)cc(CC(=O)Nc2cccc3c(=O)n(CCN4CCOCC4)ccc23)c1` ; measured inhibition at 0.3 µM: 0 to 25%

Lookup result for `CC(=O)OCCn1ccc2c(NC(=O)CCc3cc(C(F)(F)F)cc(C(F)(F)F)c3)cccc2c1=O` ; measured inhibition at 0.3 µM: 0 to 25%

Lookup result for `COc1ccc(CC(=O)Nc2cccc3c(=O)n(CC(C)(C)C)ccc23)cc1C` ; measured inhibition at 0.3 µM: 26 to 50%

###

Listed below: inhibition values for each entry.
Target: P2X7 receptor (Homo sapiens, UniProt Q99572)
Construct: host or cells: THP-1 cells differentiated with LPS and IFN-γ
Sequence (Q99572 whole entry): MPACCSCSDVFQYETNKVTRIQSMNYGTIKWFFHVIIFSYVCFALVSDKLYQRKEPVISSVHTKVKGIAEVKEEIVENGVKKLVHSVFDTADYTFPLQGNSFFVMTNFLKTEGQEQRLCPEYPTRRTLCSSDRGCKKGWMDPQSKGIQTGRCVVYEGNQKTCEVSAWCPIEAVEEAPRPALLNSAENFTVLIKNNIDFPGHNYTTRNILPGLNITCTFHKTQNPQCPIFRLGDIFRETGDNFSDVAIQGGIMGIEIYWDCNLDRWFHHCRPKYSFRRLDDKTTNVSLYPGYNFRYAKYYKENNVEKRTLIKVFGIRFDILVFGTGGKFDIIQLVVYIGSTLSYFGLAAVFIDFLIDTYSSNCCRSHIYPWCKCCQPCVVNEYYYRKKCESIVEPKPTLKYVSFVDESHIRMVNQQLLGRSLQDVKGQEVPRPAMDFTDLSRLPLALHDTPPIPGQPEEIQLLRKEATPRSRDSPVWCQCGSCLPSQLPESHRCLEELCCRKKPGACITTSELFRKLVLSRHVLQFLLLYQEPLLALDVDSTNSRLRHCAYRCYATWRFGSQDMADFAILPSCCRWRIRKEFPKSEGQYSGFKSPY
Experiment: IL-1β release assay in differentiated THP-1 cells stimulated with BzATP (Example 9)
Type: cell-based
Parameters: dose or concentration left out as unconfirmed
Details: THP-1; read-out: IL-1β % Inhib.
Protocol: THP-1 cells (ATCC Cat # 285-IF-100) are plated in 96 well plates at a concentration of 200,000 cells per well and allowed to differentiate in RPMI-1640 media (ATCC Cat # 30-2001) containing 10% FBS, 100 IU/mL penicillin, 100 ug/mL streptomycin, 100 ng/mL LPS and 100 ng/mL IFN-γ for 16 hours. […] 30 uL of cell supernatant is then collected and IL-1β levels determined via ELISA (R&D systems Cat. # HSLB50) according to manufacturer's recommendations using the Tecan Safire plate reader. […]

Previously resolved entries follow.
| record smiles | assay endpoint | observed |
| --- | --- | --- |
| Cc1ccc(C(=O)Nc2cccc3c(=O)n(Cc4cccnc4)ccc23)cc1Cl | inhibition | 0 to 25% |
| COCCn1ccc2c(NC(=O)Cc3cccc(OC)c3)cccc2c1=O | inhibition | 0 to 25% |
| COc1cccc(CCC(=O)Nc2cccc3c(=O)n(CCCN4CCCC4=O)ccc23)c1 | inhibition | 26 to 50% |
| O=C(Nc1cccc2c(=O)n(CCCN3CCCC3=O)ccc12)c1ccc(-c2ccccc2)o1 | inhibition | 0 to 25% |
| COCCn1ccc2c(NC(=O)c3ccc(C)cc3C)cccc2c1=O | inhibition | 0 to 25% |

Lookup result for `Cc1ccc(CCC(=O)Nc2cccc3c(=O)n(CC4CCN(C)CC4)ccc23)c(C)c1` ; measured inhibition: 0 to 25%

Lookup result for `Cc1cc(C(=O)Nc2cccc3c(=O)n(CCCN4CCCC4=O)ccc23)ccc1Cl` ; measured inhibition: 0 to 25%

Lookup result for `COc1ccccc1CCC(=O)Nc1cccc2c(=O)n(CC3CCN(C)CC3)ccc12` ; measured inhibition: 0 to 25%

###

target: UniProt:Q99572; experiment: IL-1β release assay in differentiated THP-1 cells stimulated with BzATP (Example 9); details: THP-1 cells, BzATP-stimulated IL-1β release, four parameter logistic fit
Output 1 for records whose IC50 is lower than 90 nM, -1 for records at or above 90 nM.

Study these solved cases before continuing.
| molecule | category |
| --- | --- |
| CN(C)CCn1ccc2c(NC(=O)Cc3ccc(F)cc3)cccc2c1=O [Compound 1018] | -1 |
| CC(=O)OCCn1ccc2c(NC(=O)CC3CCCCCC3)cccc2c1=O [Compound 1375] | 1 |
| CC1(C)CCCC(O)(CC(=O)Nc2cccc3c(=O)n(CCS(C)(=O)=O)ccc23)C1 (centres unmarked) [Compound 1629] | -1 |
| CN(C)CCn1ccc2c(NC(=O)Cc3ccc(C(F)(F)F)cc3C(F)(F)F)cccc2c1=O [Compound 1618] | -1 |
| COc1ccc(CC(=O)Nc2cccc3c(=O)n(CCN(C)C)ccc23)cc1 [Compound 1001] | -1 |

Exercise: hey, is IC50 for CC(C)(C)OC(=O)N1CCC[C@H]1Cn1ccc2c(NC(=O)CC3CCCCCC3)cccc2c1=O [Compound 1619] lower than 90 nM or not?
Solution: 1

Exercise: hey, is IC50 for CC(=O)OCCn1ccc2c(NC(=O)CC3(O)CCCCCC3)cccc2c1=O [Compound 1015] lower than 90 nM or not?
Solution: -1

Exercise: hey, is IC50 for COCCn1ccc2c(NC(=O)Cc3ccc(Cl)c(C(F)(F)F)c3)cccc2c1=O [Compound 1623] lower than 90 nM or not?
Solution: 1

###

biological target: P2X7 receptor (Homo sapiens); construct: host or cells: THP-1 cells differentiated with LPS and IFN-γ; assay: IL-1β release assay in differentiated THP-1 cells stimulated with BzATP (Example 9); format: cell-based; conditions: 0.3 μM compound; differentiated THP-1 cells, BzATP 250 uM; symbols + to ++++; read-out: IL-1β % Inhib. @ 0.3 μM
assay endpoint: inhibition at 0.3 µM

| compound | inhibition at 0.3 µM |
| --- | --- |
| O=C(Nc1cccc2c(=O)n(Cc3cccnc3)ccc12)c1cccc2c1OCCO2 [Compound 1363] | 0 to 25% |
| O=C(Cc1ccc2c(c1)OCO2)Nc1cccc2c(=O)n(Cc3cccnc3)ccc12 [Compound 1359] | 26 to 50% |
| COCCn1ccc2c(NC(=O)CC3(O)CC(C)(C)CC(C)(C)C3)cccc2c1=O [Compound 1393] | ≥ 76% |
| COCCn1ccc2c(NC(=O)CCc3ccc(OC)cc3)cccc2c1=O [Compound 1311] | 0 to 25% |
| CC(=O)OCCn1ccc2c(NC(=O)CCc3cc(C(F)(F)F)ccc3C(F)(F)F)cccc2c1=O [Compound 1374] | ≥ 76% |

Lookup result for Cc1ccc(C(=O)Nc2cccc3c(=O)n(CC(C)(C)C)ccc23)cc1Cl [Compound 1268] ; measured inhibition at 0.3 µM: 0 to 25%

Lookup result for Cn1ccc2c(NC(=O)c3cccc4c3OCCO4)cccc2c1=O [Compound 1304] ; measured inhibition at 0.3 µM: 0 to 25%

Lookup result for Cc1cccc(C(=O)Nc2cccc3c(=O)n(Cc4cccnc4)ccc23)c1C [Compound 1345] ; measured inhibition at 0.3 µM: 0 to 25%

Lookup result for COCCn1ccc2c(NC(=O)Cc3cc(OC)cc(OC)c3)cccc2c1=O [Compound 1322] ; measured inhibition at 0.3 µM: 0 to 25%

Lookup result for COCCn1ccc2c(NC(=O)CCc3ccc(Cl)cc3)cccc2c1=O [Compound 1335] ; measured inhibition at 0.3 µM: 0 to 25%

Lookup result for COCCn1ccc2c(NC(=O)Cc3ccc(OC)c(C)c3)cccc2c1=O [Compound 1337] ; measured inhibition at 0.3 µM: 0 to 25%

Lookup result for COc1ccc(CC(=O)Nc2cccc3c(=O)n(CCN4CCOCC4)ccc23)cc1 [Compound 1212] ; measured inhibition at 0.3 µM: 0 to 25%

Lookup result for Cc1cc(C(=O)Nc2cccc3c(=O)n(CCN4CCOCC4)ccc23)ccc1F [Compound 1231] ; measured inhibition at 0.3 µM: 0 to 25%

Lookup result for Cn1ccc2c(NC(=O)c3cc4ccccc4o3)cccc2c1=O [Compound 1300] ; measured inhibition at 0.3 µM: 0 to 25%

###

molecular target: UniProt Q99572; test: IL-1β release assay in differentiated THP-1 cells stimulated with BzATP (Example 9); conditions: THP-1 cells, BzATP-stimulated IL-1β release, four parameter logistic fit
assay endpoint: pIC50
Note: pIC50 values are expressed as the negative base-10 logarithm of concentration in M.

Previously resolved entries follow.
| record smiles | subject of test | pIC50 |
| --- | --- | --- |
| COCCn1ccc2c(NC(=O)CC3(O)CC(C)(C)CC(C)(C)C3)cccc2c1=O | UniProt Q99572 | 7.11 |
| CC(=O)OCCn1ccc2c(NC(=O)c3ccc(C(F)(F)F)cc3C(F)(F)F)cccc2c1=O | UniProt Q99572 | 6.49 |
| CC(=O)OCCn1ccc2c(NC(=O)C3CCN(C(=O)OC(C)(C)C)CC3)cccc2c1=O | UniProt Q99572 | 6.38 |
| COCCn1ccc2c(NC(=O)Cc3ccc(Cl)c(Cl)c3)cccc2c1=O | UniProt Q99572 | 6.91 |
| CC(=O)OCCn1ccc2c(NC(=O)Cc3ccc(C(F)(F)F)cc3)cccc2c1=O | UniProt Q99572 | 6.47 |

// below: pIC50 requested for another compound
Lookup result for `CN(C)CCn1ccc2c(NC(=O)Cc3ccc(Cl)c(Cl)c3)cccc2c1=O` ; measured pIC50: 6.62
